# MEASURED ON: T1, OX40 chimera 1549: human OX40 with mouse domains 1A and 4B and non-annotated extracellular region (aa 30-65 … (human; mouse, UniProt P47741 26-61; P47741 125-211)
# T1 construct: domain: 1A;domain: 4B and non-annotated extracellular region; Limits derived as for 1544
# T1 sequence: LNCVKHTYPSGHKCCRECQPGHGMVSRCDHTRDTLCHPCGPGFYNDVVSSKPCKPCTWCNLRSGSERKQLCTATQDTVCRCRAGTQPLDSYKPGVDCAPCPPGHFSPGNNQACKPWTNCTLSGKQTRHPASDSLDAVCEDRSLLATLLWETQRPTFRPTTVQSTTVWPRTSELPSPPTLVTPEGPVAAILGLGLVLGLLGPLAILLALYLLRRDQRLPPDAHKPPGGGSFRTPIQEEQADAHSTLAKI
# ASSAY EXPLANATION: flow cytometry, 293-F transfectants; note: test concentration or dose not given here
Think of 10 as a floor: if relative MFI vs isotype control stands on it or above, it is criterion met; beneath it, criterion not met.

anti-OX40 antibody 1482/1483 (antibody, V domains shown, Tested as IgG) VH: EVQLLESGGGLVQPGGSLRLSCAASGFTFSSYAMSWVRQAPGKGLEWVSYISYYSGYTYYADSVKGRFTISRDNSKNTLYLQMNSLRAEDTAVYYCARGYGYLDYWGQGTLVTVSS VL: DIQMTQSPSSLSASVGDRVTITCRASQSISSYLNWYQQKPGKAPKLLIYAASSLQSGVPSRFSGSGSGTDFTLTISSLQPEDFATYYCQQYGSLLTFGQGTKLEIK :: criterion not met
anti-OX40 antibody 1514/1515 (antibody, V domains shown, Tested as IgG) VH: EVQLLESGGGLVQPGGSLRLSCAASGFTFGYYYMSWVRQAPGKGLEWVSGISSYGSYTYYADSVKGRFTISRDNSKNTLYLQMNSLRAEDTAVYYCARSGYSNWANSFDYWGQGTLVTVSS VL: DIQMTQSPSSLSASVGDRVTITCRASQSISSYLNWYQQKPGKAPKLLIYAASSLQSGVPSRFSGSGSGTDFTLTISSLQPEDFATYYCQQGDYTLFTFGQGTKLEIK :: criterion met
anti-OX40 antibody 1524/1525 (antibody, V domains shown, Tested as IgG) VH: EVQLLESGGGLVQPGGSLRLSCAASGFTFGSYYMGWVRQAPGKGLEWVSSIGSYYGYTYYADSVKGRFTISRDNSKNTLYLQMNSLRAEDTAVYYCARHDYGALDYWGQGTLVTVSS VL: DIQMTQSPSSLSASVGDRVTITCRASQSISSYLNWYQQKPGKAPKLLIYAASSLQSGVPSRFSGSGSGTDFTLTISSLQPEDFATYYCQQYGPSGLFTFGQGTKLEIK :: criterion met
anti-OX40 antibody 1166/1167 (antibody, V domains shown, Tested as IgG) VH: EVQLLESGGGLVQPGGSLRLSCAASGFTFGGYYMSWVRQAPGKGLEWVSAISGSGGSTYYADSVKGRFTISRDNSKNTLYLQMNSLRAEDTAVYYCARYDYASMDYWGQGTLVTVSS VL: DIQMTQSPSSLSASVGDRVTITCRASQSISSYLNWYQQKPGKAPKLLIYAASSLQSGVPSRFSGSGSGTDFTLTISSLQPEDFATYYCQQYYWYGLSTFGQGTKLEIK :: criterion met
anti-OX40 antibody 1170/1171 (antibody, V domains shown, Tested as IgG) VH: EVQLLESGGGLVQPGGSLRLSCAASGFTFGGYYMSWVRQAPGKGLEWVSYIPGSGGSTYYADSVKGRFTISRDNSKNTLYLQMNSLRAEDTAVYYCARYDYYWMDYWGQGTLVTVSS VL: DIQMTQSPSSLSASVGDRVTITCRASQSISSYLNWYQQKPGKAPKLLIYAASSLQSGVPSRFSGSGSGTDFTLTISSLQPEDFATYYCQQGHGSYPHTFGQGTKLEIK :: criterion met

We next turn to a different binder, shown below.
Textbook exercise: given the entry anti-OX40 antibody 1526/1527 (antibody, V domains shown, Tested as IgG) VH: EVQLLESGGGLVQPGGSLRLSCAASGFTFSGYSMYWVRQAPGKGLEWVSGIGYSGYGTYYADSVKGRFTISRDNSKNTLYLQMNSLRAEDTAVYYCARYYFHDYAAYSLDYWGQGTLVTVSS VL: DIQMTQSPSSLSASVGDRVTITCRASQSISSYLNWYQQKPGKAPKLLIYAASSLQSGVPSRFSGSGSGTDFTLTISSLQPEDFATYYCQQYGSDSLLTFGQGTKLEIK , state whether its relative MFI vs isotype control is greater than or equal to 10.
criterion not met
